# System: C freundii Mantio
reported-endpoint: MIC (µg/mL)
Give the value in µg/mL but do not write µg/mL after it.

Exam item: State the recorded MIC for this entry: O=C(O)C1=CSC2/C(=C\c3ccon3)C(=O)N12 (racemic)
Marked response: 256

Exam item: Lookup Cn1ccc(/C=C2/C(=O)N3C(C(=O)O)=CSC23)n1 (racemic)
Marked response: 256

Exam item: Lookup Cn1cc(/C=C2/C(=O)N3C(C(=O)O)=CS[C@H]23)nn1
Marked response: 64

Exam item: Lookup Cn1cc(/C=C2/C(=O)N3C(C(=O)O)=CSC23)nn1 (racemic)
Marked response: 128

* * *

# Test system: E aerogenes N1
# MIC values compiled below

// below: answered compounds
1) Cn1cc(/C=C2/C(=O)N3C(C(=O)O)=CSC23)nn1 (racemic) ... 128 µg/mL
2) Cc1nc(/C=C2/C(=O)N3C(C(=O)O)=CSC23)co1 (racemic) ... > 512 µg/mL
3) O=C(O)C1=CSC2/C(=C\c3ccns3)C(=O)N12 (racemic) ... > 100 µg/mL
4) O=C(O)C1=CSC2/C(=C\c3ccon3)C(=O)N12 (racemic) ... > 512 µg/mL
5) CC1(C)S[C@@H]2[C@H](NC(=O)[C@H](N)c3ccc(O)cc3)C(=O)N2[C@H]1C(=O)O [Amoxycillin, reference compound] ... 512 µg/mL
6) Cn1cc(/C=C2/C(=O)N3C(C(=O)O)=CS[C@H]23)nn1 ... 256 µg/mL

Exam item: Query the reported MIC for E aerogenes N1; item: Cn1ccc(/C=C2/C(=O)N3C(C(=O)O)=CSC23)n1 (racemic)
Marked response: 512 µg/mL

* * *

Please consider the recorded MIC for E coli JT410 in what follows.

1. Cn1cc(/C=C2/C(=O)N3C(C(=O)O)=CS[C@H]23)nn1 ... 32 µg/mL
2. Cc1nc(/C=C2/C(=O)N3C(C(=O)O)=CSC23)co1 (racemic) ... > 512 µg/mL
3. Cn1cc(/C=C2/C(=O)N3C(C(=O)O)=CSC23)nn1 (racemic) ... 64 µg/mL
4. CC1(C)S[C@@H]2[C@H](NC(=O)[C@H](N)c3ccc(O)cc3)C(=O)N2[C@H]1C(=O)O [Amoxycillin, reference compound] ... 256 µg/mL
5. O=C(O)C1=CSC2/C(=C\c3ccon3)C(=O)N12 (racemic) ... > 512 µg/mL

Exam item: State the recorded MIC for this entry: Cn1ccc(/C=C2/C(=O)N3C(C(=O)O)=CSC23)n1 (racemic)
Marked response: 512 µg/mL

Exam item: Lookup O=C(O)C1=CSC2/C(=C\c3ccns3)C(=O)N12 (racemic)
Marked response: > 100 µg/mL

* * *

# Tested on: C freundii Mantio
# measurement-protocol: Antibacterial activity of compounds alone (MIC)
# Type: cell-based
# condition-label: compound alone, amoxycillin: typical MIC's from a number of tests, read-out: MIC (minimum inhibitory concentration)
# MIC values compiled below

// below: answered molecules
1) Cc1nc(/C=C2/C(=O)N3C(C(=O)O)=CSC23)co1 (racemic) ... > 512 µg/mL
2) O=C(O)C1=CSC2/C(=C\c3ccns3)C(=O)N12 (racemic) ... > 100 µg/mL

Please find the next molecule below.
Exam item: State the recorded MIC for this entry: CC1(C)S[C@@H]2[C@H](NC(=O)[C@H](N)c3ccc(O)cc3)C(=O)N2[C@H]1C(=O)O [Amoxycillin, reference compound]
Marked response: > 512 µg/mL
